# credit: PubChem BioAssay (NCI)

# Tested on: OVCAR-3 ovarian
# test_protocol: NCI tumour cell line growth inhibition, 48 h
metric_name: TGI

# get_value(readout= TGI, system= OVCAR-3 ovarian) for O=c1cc(-c2ccccc2)[nH]c2ncccc12
> 100 µM

Now the compound COc1ccc2c(c1)N(Cc1ccc(Cl)cc1)CCC2N1CCCC1=O (stereo not given)
> 100 µM

Now the compound CCCCCCC1N=C(N)N=C(N)N1c1cccc(Cl)c1 (stereo not given)
10.5 µM

Now the compound COc1cc(-c2cc3ncccc3c3nc(OCCN(C)C)c4cccnc4c23)cc(OC)c1OC
3.09 µM

Now the compound Oc1c(CN2CCCC2)ccc2cccnc12
> 82.7 µM

Now the compound Nc1nc(NCCOCP(=O)(O)O)c([N+](=O)[O-])c(=O)[nH]1
> 100 µM

Now the compound CCn1c(-c2nonc2N)nc2c(C#CC(C)(C)O)ncc(OC3CCNCC3)c21
17.3 µM

Now the compound CC(C)OP(=S)(NC(=S)c1ccccc1)OC(C)C
> 100 µM

Now the compound O=C(CN1CCCC1=O)CS(=O)(=O)c1ccccc1
> 100 µM

Now the compound COc1ccc2nc3c([N+](=O)[O-])ccc(NCCN(C)C)c3c(N)c2c1
3.31 µM

Now the compound ClCCCSSCCCCl
97.1 µM

Now the compound COc1ccc(/C=C/C(=O)c2c(O)ccc3c(C)c(C(=O)O)oc23)cc1
> 100 µM

Now the compound Cc1ccc(Cc2cc(N3CCN(c4cccc(Cl)c4)CC3)nnc2C)cc1
> 100 µM

Now the compound CN1C(=O)CC2(C)c3cc(O)cc(Br)c3N(C)C12 (stereo not given)
> 100 µM

Now the compound CN(c1ccccc1)S(=O)(=O)c1ccc([N+](=O)[O-])cc1
> 100 µM

====

Please provide measured TGI for the entries that follow.
# Test system: NCI-H460 lung
# test_protocol: NCI tumour cell line growth inhibition, 48 h

# get_value(readout= TGI, system= NCI-H460 lung) for CCN1c2ccccc2NC(=S)c2c1n[nH]c2-c1ccccc1
77.2 µM

Now the compound O=c1ccc2ccc(CBr)cc2o1
25.3 µM

Now the compound COC1=C[C@]2(CCC(=O)O2)[C@@H]2Cc3ccccc3[C@H](O)[C@@H]2C1=O
> 100 µM

Now the compound Oc1c(C(Nc2ccccn2)c2cccc(Oc3ccccc3)c2)ccc2cccnc12 (configuration not stated)
10.5 µM

Now the compound Cc1ccc(C)c2c1C(=O)N(c1ccc(F)cc1F)C2=O
> 100 µM

Now the compound c1ccc2c(c1)SC(=C1Sc3ccccc3S1)S2
> 100 µM

Now the compound Cc1c(C(=O)O)n2c(=S)[nH]nc2c2ccccc12
> 100 µM

Now the compound CC1CCCC(C(=O)CC2CC(=O)NC(=O)C2)C1=O (configuration not stated)
> 100 µM

Now the compound NC1N=Nc2ccccc21 (configuration not stated)
> 100 µM

Now the compound CC(c1cc(Cl)ccc1O)c1cc(Cl)ccc1O
4.88 µM

Now the compound O=c1c2c3c(sc2nc2n1N=CN(c1ccccc1)C2)CCCC3
> 100 µM

Now the compound Cc1ccc([Se](=C(C(=O)c2ccccc2)C(=O)c2ccccc2)c2ccc(C)cc2)cc1
> 100 µM

====

# Tested on: MCF7 breast
# test_protocol: NCI tumour cell line growth inhibition, 48 h; in the data active means GI50 below about 0.43 µM; inactive means the rest
// one of true (1) = active, false (0) = inactive, no free text

Please state the recorded outcome for this compound: N#CC1C[C@@H]2CC3(CCC2CN1C(=O)c1ccccc1)OCCO3 (some centres undefined)
false (0)

Now the compound COc1cc(-c2cc3ncccc3c3nc(OCCN(C)C)c4cccnc4c23)cc(OC)c1OC
true (1)

Now the compound CN1CC=C(c2cc(NC(=O)Nc3ccc(Oc4ccnc(NC(=O)C5CC5)c4)c(F)c3)cc(C(F)(F)F)c2)CC1
true (1)

Now the compound O=C(Cn1c(C(=O)c2ccc(Cl)cc2)nc(-c2ccc(Cl)cc2)c1-c1ccc(Cl)cc1)c1ccccc1
false (0)

Now the compound CC1(C)CC(=O)C=C(/C=C/Sc2c(Cl)c(Cl)nc(Cl)c2Cl)C1
false (0)

Now the compound Cc1ccccc1C1=C(c2cn(C)c3ccccc23)C(=O)NC1=O
false (0)

Now the compound COc1cc2c3c(n(CCCN4CCNCC4)c(=O)c2cc1OC)-c1cc2c(cc1C3=O)OCO2
true (1)

Now the compound OCc1ccc(-c2csc(-c3ccc(CO)o3)c2)o1
false (0)

Now the compound COc1ccc(-c2cc(/C=C3\C(=O)Nc4cc(Cl)ccc43)[nH]n2)cc1
false (0)

Now the compound COc1cc(OC)cc(Oc2cnc3cc(N)cc(N)c3n2)c1
false (0)

Now the compound C[C@H](c1ccc(F)cc1CCCC(=O)O)N(c1cc(F)ccc1F)S(=O)(=O)c1ccc(Cl)cc1
false (0)

Now the compound CCCCCCCCCCCCCC[n+]1ccccc1
false (0)

Now the compound CC(c1cc(Cl)ccc1O)c1cc(Cl)ccc1O
false (0)

Now the compound CC1CCC2C(C)C(=O)OC3OC4(C)CCC1C32OO4 (centres undefined)
false (0)
